- Tested System: BACE1 (Homo sapiens (Human))
- Sequence (P56817 75-416): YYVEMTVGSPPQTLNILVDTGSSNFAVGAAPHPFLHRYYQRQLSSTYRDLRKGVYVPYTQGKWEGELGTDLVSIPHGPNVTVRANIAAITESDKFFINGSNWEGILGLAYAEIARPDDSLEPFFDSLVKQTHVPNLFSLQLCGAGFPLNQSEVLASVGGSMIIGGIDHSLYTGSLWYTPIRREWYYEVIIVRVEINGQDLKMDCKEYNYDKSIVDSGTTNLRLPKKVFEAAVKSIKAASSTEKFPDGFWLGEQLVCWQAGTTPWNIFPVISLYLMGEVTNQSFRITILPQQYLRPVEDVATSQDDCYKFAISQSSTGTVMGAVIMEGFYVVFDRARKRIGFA
- Assay Explanation: Test Example 1: BACE1 inhibition by FRET (MCA substrate); IC50 and Ki
- Details: read-out: Test Example 1 IC50
Parameter IC50: see the listing below.

Compound	IC50 (nM)
CC1(C)Oc2ccc(NC(=O)c3ccc(F)cn3)cc2C2(COC(N)=N2)C12COC2 (centres unmarked) [Example 28]	154
CC1(C)Oc2ccc(NC(=O)c3ncc(Cl)cc3F)cc2C2(COC(N)=N2)C12COC2 (centres unmarked) [Example 30]	97.5

* * *

- System: Aβ production in SK-N-BE(2) neuroblastoma cells
- Assay Explanation: Test Example 3: Aβ production inhibition in cell (Aβ40 ELISA, SK-N-BE(2))
- Details: Homo sapiens, SKNBE2, 6 h, read-out: Test Example 3 IC50, SK-N-BE(2) cells, 6 hours, Aβ40 ELISA normalized by viability
pIC50: −log10 of the molar value.
Each entry below carries its reported pIC50.

Compound	pIC50
CC1(C)Oc2ccc(-c3cccc(C4CC4)c3)cc2C2(COC(N)=N2)C12COC2 (stereo not drawn) [RP 140]	6.39
CCC1Oc2ccc(-c3cncnc3)cc2C2(COC(N)=N2)C12COC2 (stereo not drawn) [RP 84]	6.39
CC#Cc1cc(-c2ccc3c(c2)C2(COC(N)=N2)C2(COC2)CO3)ncn1 (stereo not drawn) [RP 21]	6.39
